# Measurement Target: Human recombinant C-ter-His-FLAG-HDAC1 (Homo sapiens, UniProt Q13547)
# Construct: His (C); FLAG (C); purchased BPS Bioscience 50051
# Sequence (Q13547 whole entry): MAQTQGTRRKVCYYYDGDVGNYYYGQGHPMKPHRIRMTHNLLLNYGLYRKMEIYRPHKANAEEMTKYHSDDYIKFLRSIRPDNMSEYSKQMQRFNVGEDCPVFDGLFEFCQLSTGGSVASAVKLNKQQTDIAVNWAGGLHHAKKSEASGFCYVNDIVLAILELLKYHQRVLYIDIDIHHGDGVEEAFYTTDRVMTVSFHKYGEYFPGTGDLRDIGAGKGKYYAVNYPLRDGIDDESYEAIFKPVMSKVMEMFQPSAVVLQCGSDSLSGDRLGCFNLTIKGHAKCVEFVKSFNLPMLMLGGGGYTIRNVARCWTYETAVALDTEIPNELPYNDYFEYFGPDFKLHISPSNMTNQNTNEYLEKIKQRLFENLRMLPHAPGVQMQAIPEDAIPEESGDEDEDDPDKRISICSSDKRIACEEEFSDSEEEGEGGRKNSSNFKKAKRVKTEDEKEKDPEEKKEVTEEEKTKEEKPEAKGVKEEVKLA
# Experiment Summary: HDAC-Glo I/II bioluminogenic enzyme assay, HDAC1
# Type: biochemical
# Condition Details: mean ± SD of three independent experiments; read-out: HDAC Inhibition, IC50 ± SD, HDAC1
Reported Metric: IC50

Molecule	Reported Metric	Result
O=C(CCCCCN1CCN(C(c2ccccc2)c2ccccc2)CC1)NO [Compound 6b]	IC50	4.73 µM
O=C(CCCCCCN1CCN(C(c2ccccc2)c2ccccc2)CC1)NO [Compound 7b]	IC50	0.619 µM
O=C(CCCCCCCN1CCN(C(c2ccccc2)c2ccccc2)CC1)NO [Compound 8b]	IC50	0.408 µM
O=C(NO)c1ccc(CN2CCN(C(c3ccccc3)c3ccccc3)CC2)cc1 [Compound 9b]	IC50	1.47 µM

====

# key: entry, value: IC50
# Measurement Target: Human recombinant HDAC-3/NcoR2 (Homo sapiens)
# Sequence (O15379 whole entry): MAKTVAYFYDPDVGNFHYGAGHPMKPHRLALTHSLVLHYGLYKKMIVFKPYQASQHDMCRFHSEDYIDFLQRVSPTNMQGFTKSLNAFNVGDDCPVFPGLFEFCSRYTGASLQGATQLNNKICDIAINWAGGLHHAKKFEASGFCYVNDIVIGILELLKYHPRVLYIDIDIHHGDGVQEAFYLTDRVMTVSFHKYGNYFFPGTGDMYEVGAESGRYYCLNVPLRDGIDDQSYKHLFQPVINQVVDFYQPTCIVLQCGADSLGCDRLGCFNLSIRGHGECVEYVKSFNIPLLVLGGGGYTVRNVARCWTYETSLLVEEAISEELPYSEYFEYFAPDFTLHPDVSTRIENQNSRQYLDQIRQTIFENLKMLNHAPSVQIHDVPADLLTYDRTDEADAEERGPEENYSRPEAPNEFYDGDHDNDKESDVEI
# Sequence (Q9Y618 395-489 partner limits assumed): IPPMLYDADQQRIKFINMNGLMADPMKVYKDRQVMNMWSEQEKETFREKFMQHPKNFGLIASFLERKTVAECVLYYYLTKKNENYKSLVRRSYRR
# Experiment Summary: HDAC-Glo I/II bioluminogenic enzyme assay, HDAC3
# Assay type: biochemical
# Set-up: purchased BPS Bioscience 50003
# Condition Details: mean ± SD of three independent experiments; read-out: HDAC Inhibition, IC50 ± SD, HDAC3
Reported Metric: IC50 (nM)

Molecule	Reported Metric	Recorded Number
O=C(CCCCCN1CCN(C(c2ccccc2)c2ccccc2)CC1)NO [Compound 6b]	IC50	1860
O=C(NO)c1ccc(CN2CCN(C(c3ccccc3)c3ccccc3)CC2)cc1 [Compound 9b]	IC50	3470
O=C(CCCCCCCN1CCN(C(c2ccccc2)c2ccccc2)CC1)NO [Compound 8b]	IC50	207
O=C(CCCCCCN1CCN(C(c2ccccc2)c2ccccc2)CC1)NO [Compound 7b]	IC50	267

====

# Experiment Summary: Acute and developmental toxicity in zebrafish embryos
# Type: in vivo, Danio rerio
# Condition Details: wild type (AB), zebrafish (Danio rerio), in vivo, other: exposure of embryos in E3 medium; embryos treated at 6 hpf, evaluated at 120 hpf
# Method: Embryos of wild type (AB) and transgenic Tg(fli1:EGFP) and Tg(-2.8fabp10a:EGFP) zebrafish (Danio rerio) lines were kindly provided by Dr. Ana Cvejić (Wellcome Trust Sanger Institute, Cambridge, UK) and raised to adult stage in a temperature- and light-controlled zebrafish facility at 28 °C and standard 14–10 h light–dark photoperiod. […]

Compound	LC50
O=C(CCCCCCCN1CCN(C(c2ccccc2)c2ccccc2)CC1)NO [Compound 8b]	> 100 µM
O=C(NO)c1ccc(CN2CCN(C(c3ccccc3)c3ccccc3)CC2)cc1 [Compound 9b]	> 100 µM

====

# Measurement Target: Human recombinant N-ter-GST-HDAC-6 (Homo sapiens, UniProt Q9UBN7)
# Sequence (Q9UBN7 whole entry): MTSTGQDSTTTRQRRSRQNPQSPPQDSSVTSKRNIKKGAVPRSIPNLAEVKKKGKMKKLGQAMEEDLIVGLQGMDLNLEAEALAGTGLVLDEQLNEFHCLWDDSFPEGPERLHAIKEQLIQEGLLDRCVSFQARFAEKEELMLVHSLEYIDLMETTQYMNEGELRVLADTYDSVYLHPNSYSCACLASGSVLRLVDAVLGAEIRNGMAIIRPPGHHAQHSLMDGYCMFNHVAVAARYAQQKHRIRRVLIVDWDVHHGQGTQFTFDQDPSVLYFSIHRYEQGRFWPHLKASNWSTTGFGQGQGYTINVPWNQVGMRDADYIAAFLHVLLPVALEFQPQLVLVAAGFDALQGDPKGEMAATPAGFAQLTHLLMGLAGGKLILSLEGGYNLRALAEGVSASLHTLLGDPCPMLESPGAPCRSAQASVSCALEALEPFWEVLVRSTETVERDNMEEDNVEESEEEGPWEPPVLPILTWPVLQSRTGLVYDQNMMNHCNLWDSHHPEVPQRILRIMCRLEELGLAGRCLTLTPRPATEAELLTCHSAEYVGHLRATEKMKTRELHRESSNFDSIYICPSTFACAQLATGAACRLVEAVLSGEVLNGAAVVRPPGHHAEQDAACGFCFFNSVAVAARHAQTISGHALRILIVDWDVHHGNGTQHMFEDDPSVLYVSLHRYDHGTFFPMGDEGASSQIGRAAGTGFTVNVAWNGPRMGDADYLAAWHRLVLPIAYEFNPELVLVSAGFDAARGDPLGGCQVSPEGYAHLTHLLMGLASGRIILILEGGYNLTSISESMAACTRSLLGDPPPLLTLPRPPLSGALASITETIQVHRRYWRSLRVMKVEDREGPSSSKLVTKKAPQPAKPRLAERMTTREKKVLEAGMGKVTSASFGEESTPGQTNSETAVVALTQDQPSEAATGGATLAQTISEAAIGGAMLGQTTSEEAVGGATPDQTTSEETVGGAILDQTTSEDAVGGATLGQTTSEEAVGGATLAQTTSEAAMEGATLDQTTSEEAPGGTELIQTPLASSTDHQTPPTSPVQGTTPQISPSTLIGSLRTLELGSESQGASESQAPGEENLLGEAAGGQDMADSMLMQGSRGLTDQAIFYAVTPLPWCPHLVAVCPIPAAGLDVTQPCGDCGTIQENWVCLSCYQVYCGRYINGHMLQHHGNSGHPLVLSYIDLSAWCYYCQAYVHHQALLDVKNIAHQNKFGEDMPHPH
# Experiment Summary: HDAC-Glo I/II bioluminogenic enzyme assay, HDAC6
# Format: biochemical
# Set-up: GST (N); purchased BPS Bioscience 50006
# Condition Details: 5 μM; mean ± standard error of triplicate
# key: entry, value: % HDAC6 Inhibition at 5 μM
Reported Metric: % HDAC6 Inhibition at 5 μM (%)

Record Smiles	Reported Metric	Output Unit	Recorded Number
O=C(CCCCCN1CCN(C(c2ccccc2)c2ccccc2)CC1)NO	% HDAC6 Inhibition at 5 μM	%	95.6
O=C(CCCCCCCN1CCN(C(c2ccccc2)c2ccccc2)CC1)NO	% HDAC6 Inhibition at 5 μM	%	97.7
O=C(NO)c1ccc(CN2CCN(C(c3ccccc3)c3ccccc3)CC2)cc1	% HDAC6 Inhibition at 5 μM	%	96.9
O=C(CCCCCCN1CCN(C(c2ccccc2)c2ccccc2)CC1)NO	% HDAC6 Inhibition at 5 μM	%	97.1

====

# Test system: MDA-MB-231 tumor spheres
# Experiment Summary: 3D tumor sphere model, MTT and imaging
# Type: cell-based, human
# Condition Details: Homo sapiens, MDA-MB-231; spheres formed 4 d, treated 72 h, MTT
# Procedure: MDA-MB-231 cells were seeded at a cell density of 1000 c/w in 100 μL of DMEM containing 10% FCS in a low-attachment NunclonSphera 96-well ultra-low attachment plate (Thermo Scientific Nunc™, Rochester, NY, USA), to form multicellular tumor spheres, for 4 days. The formation and growth of tumor spheres were examined and imaged with an Olympus CKX53 microscope, using a 10× objective. […]
Reported Metric: IC50 (µM)

Record Smiles	Measurement Target	Recorded Number
O=C(CCCCCCCN1CCN(C(c2ccccc2)c2ccccc2)CC1)NO	MDA-MB-231 tumor spheres	50

====

# key: entry, value: pEC50
# Experiment Summary: Acute and developmental toxicity in zebrafish embryos
# Type: in vivo, Danio rerio
# Condition Details: wild type (AB), zebrafish (Danio rerio), in vivo, other: exposure of embryos in E3 medium; teratogenicity, cardiotoxicity, hepatotoxicity; treated at 6 hpf, evaluated at 120 hpf
pEC50: −log10 of the molar value.
Reported Metric: pEC50

Compound	Recorded Number
O=C(NO)c1ccc(CN2CCN(C(c3ccccc3)c3ccccc3)CC2)cc1 [Compound 9b]	4.27
O=C(CCCCCCCN1CCN(C(c2ccccc2)c2ccccc2)CC1)NO [Compound 8b]	4.10

====

# System: MDA-MB-231 tumor spheres
# Experiment Summary: 3D tumor sphere model, MTT and imaging
# Assay type: cell-based, human
# Condition Details: 50 µM, 72 h, formed spheres, MTT

Compound	tumor sphere viability
CN1CCc2c(c3ccccc3n2Cc2ccc(C(=O)NO)cc2)C1 [tubastatin A, reference compound]	mild decrease
O=C(CCCCCN1CCN(C(c2ccccc2)c2ccccc2)CC1)NO	mild decrease

====

# key: entry, value: inhibition at 5 µM
# Measurement Target: Human recombinant N-ter-GST-HDAC-6 (Homo sapiens)
# Experiment Summary: HDAC-Glo I/II bioluminogenic enzyme assay, HDAC6
# Type: biochemical
# Parameters: GST (N); purchased BPS Bioscience 50006
# Condition Details: 5 μM; mean ± standard error of triplicate

Record Smiles	Measurement Target	inhibition at 5 µM
O=C(NO)c1ccc(CN2CCN(C(c3ccccc3)c3ccccc3)CC2)cc1	Human recombinant N-ter-GST-HDAC-6 (Homo sapiens)	> 90%
O=C(CCN1CCN(C(c2ccccc2)c2ccccc2)CC1)NO	Human recombinant N-ter-GST-HDAC-6 (Homo sapiens)	< 25%
O=C(CCCCCN1CCN(C(c2ccccc2)c2ccccc2)CC1)NO	Human recombinant N-ter-GST-HDAC-6 (Homo sapiens)	> 90%
O=C(CCCCCCN1CCN(C(c2ccccc2)c2ccccc2)CC1)NO	Human recombinant N-ter-GST-HDAC-6 (Homo sapiens)	> 90%
O=C(CCCCN1CCN(C(c2ccccc2)c2ccccc2)CC1)NO	Human recombinant N-ter-GST-HDAC-6 (Homo sapiens)	< 25%
O=C(CCCCCCCN1CCN(C(c2ccccc2)c2ccccc2)CC1)NO	Human recombinant N-ter-GST-HDAC-6 (Homo sapiens)	> 90%

====

# Measurement Target: Human recombinant C-terminal His-tag-HDAC8 (Homo sapiens, UniProt Q9BY41)
# Construct: His (C); purchased BPS Bioscience 50008
# Sequence (Q9BY41 1-377): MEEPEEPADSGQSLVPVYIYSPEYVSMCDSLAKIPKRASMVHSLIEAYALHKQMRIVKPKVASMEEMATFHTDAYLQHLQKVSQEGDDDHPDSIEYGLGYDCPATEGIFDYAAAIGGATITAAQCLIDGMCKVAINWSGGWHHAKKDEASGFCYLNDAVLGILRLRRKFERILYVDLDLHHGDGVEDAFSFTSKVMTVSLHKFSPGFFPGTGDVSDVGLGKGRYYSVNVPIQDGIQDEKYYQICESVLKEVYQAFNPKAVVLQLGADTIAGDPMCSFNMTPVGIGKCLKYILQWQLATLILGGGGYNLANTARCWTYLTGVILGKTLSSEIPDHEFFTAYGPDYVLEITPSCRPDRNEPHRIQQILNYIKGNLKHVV
# Experiment Summary: HDAC-Glo I/II bioluminogenic enzyme assay, HDAC8
# Type: biochemical
# Condition Details: mean ± SD of three independent experiments; read-out: HDAC Inhibition, IC50 ± SD, HDAC8
# key: entry, value: IC50

Compound	Output Unit	IC50
O=C(CCCCCN1CCN(C(c2ccccc2)c2ccccc2)CC1)NO [Compound 6b]	nM	2440
O=C(CCCCCCN1CCN(C(c2ccccc2)c2ccccc2)CC1)NO [Compound 7b]	nM	345
O=C(CCCCCCCN1CCN(C(c2ccccc2)c2ccccc2)CC1)NO [Compound 8b]	nM	245
O=C(NO)c1ccc(CN2CCN(C(c3ccccc3)c3ccccc3)CC2)cc1 [Compound 9b]	nM	708

====

# Measurement Target: Human recombinant N-ter-GST-HDAC-6 (Homo sapiens)
# Experiment Summary: HDAC-Glo I/II bioluminogenic enzyme assay, HDAC6
# Format: biochemical
# Set-up: GST (N); purchased BPS Bioscience 50006
# Condition Details: ratio of IC50 values
# key: entry, value: Selectivity Ratio HDAC1/6
Reported Metric: Selectivity Ratio HDAC1/6

Record Smiles	Result
O=C(CCCCCCCN1CCN(C(c2ccccc2)c2ccccc2)CC1)NO	3.3
O=C(NO)c1ccc(CN2CCN(C(c3ccccc3)c3ccccc3)CC2)cc1	47.5
O=C(CCCCCCN1CCN(C(c2ccccc2)c2ccccc2)CC1)NO	6.4
O=C(CCCCCN1CCN(C(c2ccccc2)c2ccccc2)CC1)NO	25.4
